I'd be grateful if you could share measured pEC50 for these entries.
biological target: Mu-type opioid receptor (Homo sapiens, UniProt P35372); experiment: Agonist activity at mu-opioid receptor (unknown origin) expressed in HEK293 cells assessed as inhibition of forskolin-induced cAMP accumulation incubated for 15 mins by ELISA
Sequence (P35372 whole entry): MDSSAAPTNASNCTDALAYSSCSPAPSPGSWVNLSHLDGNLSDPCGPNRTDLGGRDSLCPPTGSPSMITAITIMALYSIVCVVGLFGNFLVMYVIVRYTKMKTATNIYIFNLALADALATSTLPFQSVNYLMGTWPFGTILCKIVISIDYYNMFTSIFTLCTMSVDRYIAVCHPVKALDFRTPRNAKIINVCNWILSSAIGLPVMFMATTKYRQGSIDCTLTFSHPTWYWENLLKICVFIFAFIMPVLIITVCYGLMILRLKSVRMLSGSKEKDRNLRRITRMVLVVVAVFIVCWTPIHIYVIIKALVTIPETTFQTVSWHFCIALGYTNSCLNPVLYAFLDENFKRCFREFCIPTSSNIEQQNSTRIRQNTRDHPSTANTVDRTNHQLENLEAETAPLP
Quick note: pEC50 values are minus log10 of concentrations in mol/L.

Query: May I ask what pEC50 has been recorded for Cc1cc(O)cc(C)c1C[C@H](N)C(=O)N[C@H]1CSSC[C@@H](C(=O)NCC(=O)N[C@H](CCCNC(=N)N)C(=O)N[C@H](CCCNC(=N)N)C(=O)O)NC(=O)[C@H](Cc2ccc(Cl)cc2)NC(=O)[C@H](Cc2c[nH]c3ccccc23)NC1=O ?
Result: 7.87

Query: May I ask what pEC50 has been recorded for Cc1cc(O)cc(C)c1C[C@H](N)C(=O)N[C@H]1CSSC[C@@H](C(=O)NCC(=O)N[C@H](CCCNC(=N)N)C(=O)N[C@H](CCCNC(=N)N)C(=O)O)NC(=O)[C@H](Cc2ccc(Cl)cc2)NC(=O)[C@H](Cc2ccccc2)NC1=O ?
Result: 7.84

Query: May I ask what pEC50 has been recorded for N=C(N)NCCC[C@@H](NC(=O)[C@@H](CCCNC(=N)N)NC(=O)CNC(=O)[C@@H]1CSSC[C@H](NC(=O)[C@@H](N)Cc2ccc(O)cc2)C(=O)N[C@@H](Cc2ccccc2)C(=O)N[C@@H](Cc2ccccc2)C(=O)N1)C(=O)O ?
Result: 6.81

Query: May I ask what pEC50 has been recorded for N=C(N)NCCC[C@@H](NC(=O)[C@@H](CCCNC(=N)N)NC(=O)CNC(=O)[C@@H]1CSSC[C@H](NC(=O)[C@@H](N)Cc2ccc(O)cc2)C(=O)N[C@@H](Cc2ccccc2)C(=O)N[C@@H](Cc2ccc(Cl)cc2)C(=O)N1)C(=O)O ?
Result: 6.70

Query: May I ask what pEC50 has been recorded for N=C(N)NCCC[C@@H](NC(=O)[C@@H](CCCNC(=N)N)NC(=O)CNC(=O)[C@@H]1CSSC[C@H](NC(=O)[C@@H](N)Cc2ccc(O)cc2)C(=O)N[C@@H](Cc2c[nH]c3ccccc23)C(=O)N[C@@H](Cc2ccc(Cl)cc2)C(=O)N1)C(=O)O ?
Result: 6.72

Query: May I ask what pEC50 has been recorded for N=C(N)NCCC[C@@H](NC(=O)[C@@H](CCCNC(=N)N)NC(=O)CNC(=O)[C@@H]1CSSC[C@H](NC(=O)[C@@H](N)Cc2ccc(O)cc2)C(=O)N[C@@H](Cc2c[nH]c3ccccc23)C(=O)N[C@@H](Cc2ccccc2)C(=O)N1)C(=O)O ?
Result: 6.80

---

target: Delta-type opioid receptor (Homo sapiens) (UniProt P41143); assay: Agonist activity at delta-opioid receptor (unknown origin) expressed in HEK293 cells assessed as inhibition of forskolin-induced cAMP accumulation incubated for 15 mins by ELISA; format: functional, cell-based
Sequence (P41143 whole entry): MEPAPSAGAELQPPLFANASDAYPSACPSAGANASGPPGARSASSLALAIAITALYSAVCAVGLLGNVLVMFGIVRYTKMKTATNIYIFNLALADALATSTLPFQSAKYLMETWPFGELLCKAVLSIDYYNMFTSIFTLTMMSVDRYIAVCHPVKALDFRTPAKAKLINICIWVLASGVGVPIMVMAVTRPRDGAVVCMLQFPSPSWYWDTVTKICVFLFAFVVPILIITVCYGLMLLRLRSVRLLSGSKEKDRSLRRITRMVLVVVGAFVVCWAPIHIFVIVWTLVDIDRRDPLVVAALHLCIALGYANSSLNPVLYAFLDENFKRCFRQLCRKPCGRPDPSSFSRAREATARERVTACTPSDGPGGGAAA
Activity calls are given as the source filed them. No cut-off for these calls is given here.
PROPERTY_NAME: Activity

N=C(N)NCCC[C@@H](NC(=O)[C@@H](CCCNC(=N)N)NC(=O)CNC(=O)[C@@H]1CSSC[C@H](NC(=O)[C@@H](N)Cc2ccc(O)cc2)C(=O)N[C@@H](Cc2c[nH]c3ccccc23)C(=O)N[C@@H](Cc2ccccc2)C(=O)N1)C(=O)O
inactive
N=C(N)NCCC[C@@H](NC(=O)[C@@H](CCCNC(=N)N)NC(=O)CNC(=O)[C@@H]1CSSC[C@H](NC(=O)[C@@H](N)Cc2ccc(O)cc2)C(=O)N[C@@H](Cc2ccccc2)C(=O)N[C@@H](Cc2ccccc2)C(=O)N1)C(=O)O
inactive
N=C(N)NCCC[C@@H](NC(=O)[C@@H](CCCNC(=N)N)NC(=O)CNC(=O)[C@@H]1CSSC[C@H](NC(=O)[C@@H](N)Cc2ccc(O)cc2)C(=O)N[C@@H](Cc2c[nH]c3ccccc23)C(=O)N[C@@H](Cc2ccc(Cl)cc2)C(=O)N1)C(=O)O
inactive
Cc1cc(O)cc(C)c1C[C@H](N)C(=O)N[C@H]1CSSC[C@@H](C(=O)NCC(=O)N[C@H](CCCNC(=N)N)C(=O)N[C@H](CCCNC(=N)N)C(=O)O)NC(=O)[C@H](Cc2ccc(Cl)cc2)NC(=O)[C@H](Cc2ccccc2)NC1=O
inactive
N=C(N)NCCC[C@@H](NC(=O)[C@@H](CCCNC(=N)N)NC(=O)CNC(=O)[C@@H]1CSSC[C@H](NC(=O)[C@@H](N)Cc2ccc(O)cc2)C(=O)N[C@@H](Cc2ccccc2)C(=O)N[C@@H](Cc2ccc(Cl)cc2)C(=O)N1)C(=O)O
inactive

# evaluate next
Query: May I ask what Activity has been recorded for Cc1cc(O)cc(C)c1C[C@H](N)C(=O)N[C@H]1CSSC[C@@H](C(=O)NCC(=O)N[C@H](CCCNC(=N)N)C(=O)N[C@H](CCCNC(=N)N)C(=O)O)NC(=O)[C@H](Cc2ccc(Cl)cc2)NC(=O)[C@H](Cc2c[nH]c3ccccc23)NC1=O ?
Result: inactive
